- Target system: T1, C-X-C motif chemokine receptor 4 (CXCR4) on Jurkat cells (human (endogenous in Jurkat), UniProt P61073 1-352)
- T1 construct: CXCR4 naturally expressed at high levels on Jurkat cells (human T lymphoblasts); source: endogenous, on Jurkat cells (clone E6-1, ATCC)
- T1 sequence (P61073 whole entry): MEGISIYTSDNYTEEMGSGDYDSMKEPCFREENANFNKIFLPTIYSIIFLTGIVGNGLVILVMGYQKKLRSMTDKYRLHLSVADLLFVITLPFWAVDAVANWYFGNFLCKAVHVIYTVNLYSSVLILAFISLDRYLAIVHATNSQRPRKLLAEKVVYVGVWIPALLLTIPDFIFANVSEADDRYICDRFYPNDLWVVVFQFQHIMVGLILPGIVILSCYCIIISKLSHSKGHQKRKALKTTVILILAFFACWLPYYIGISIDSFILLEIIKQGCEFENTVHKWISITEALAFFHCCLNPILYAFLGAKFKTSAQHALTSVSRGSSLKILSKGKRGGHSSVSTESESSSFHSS
- Protocol: flow cytometry on cells; competition with APC-labelled anti-CXCR4 antibody clone 12G5 at a fixed concentration close to its KD; Jurkat cells, 50,000 cells/well; ligands serially diluted in PBS; 4 °C, 2 h; PBS with 1% FBS
- Conditions: one partner purified
Square brackets hold non-standard residues; d marks the D form. Ends that are not written are not given here. * marks the point of attachment. DOTA = O=C(O)CN1CCN(CC(=O)O)CCN(CC(=O)*)CCN(CC(=O)O)CC1
Observed property: log10 of IC50 (log10 of the value in nM)
For clarity, the numbers are log10 values of IC50 expressed in nM.

For reference, reported log10 of IC50 for ILRWSRKLPSVSK(DOTA) (also: natLu complexed by DOTA, natLu and 177Lu complexes are written as one molecule; they differ only in the isotope; also called ^177Lu-2; Lu complex of ligand-2; source: synthetic peptide, complexed with natLuCl3; ^177Lu form labelled with 177LuCl3) [^natLu-2] stands at 1.69

For reference, reported log10 of IC50 for [dI]LRWSRKK(DOTA)-NH2 (N-terminus assumed; SMILES CC[C@@H](C)[C@@H](N)C(=O)N[C@@H](CC(C)C)C(=O)N[C@@H](CCCNC(=N)N)C(=O)N[C@@H](Cc1c[nH]c2ccccc12)C(=O)N[C@@H](CO)C(=O)N[C@@H](CCCNC(=N)N)C(=O)N[C@@H](CCCCN)C(=O)N[C@@H](CCCCNC(=O)CN1CCN(CC(=O)O)CCN(CC(=O)O)CCN(CC(=O)O)CC1)C(N)=O, as ligand-4 with isoleucine 1 substituted by D-isoleucine; also called DOTA conjugate of JM#173; source: synthetic peptide (Fmoc solid phase synthesis, RP-HPLC purified)) [ligand-7] stands at 2.64

For reference, reported log10 of IC50 for ILRWSRKK(DOTA)-NH2 (truncated JM#21 derivative with added C-terminal K(DOTA)-NH2; source: synthetic peptide (Fmoc solid phase synthesis, RP-HPLC purified)) [ligand-4] stands at 2.21

For reference, reported log10 of IC50 for [dL]LRWSRKLPCVSK(DOTA) (as ligand-1 with isoleucine 1 substituted by D-leucine; source: synthetic peptide (Fmoc solid phase synthesis, RP-HPLC purified)) [ligand-6] stands at 2.63

For reference, reported log10 of IC50 for LVRYTKKVPQVSTPTL (16-mer fragment of human serum albumin; also called wild-type EPI-X4; source: synthetic peptide) [EPI-X4 (endogenous peptide inhibitor of CXCR4)] stands at 3.25

For reference, reported log10 of IC50 for ILRWSRK(DOTA)-NH2 (N-terminus assumed; SMILES CC[C@H](C)[C@H](N)C(=O)N[C@@H](CC(C)C)C(=O)N[C@@H](CCCNC(=N)N)C(=O)N[C@@H](Cc1c[nH]c2ccccc12)C(=O)N[C@@H](CO)C(=O)N[C@@H](CCCNC(=N)N)C(=O)N[C@@H](CCCCNC(=O)CN1CCN(CC(=O)O)CCN(CC(=O)O)CCN(CC(=O)O)CC1)C(N)=O, shortest truncated JM#21 derivative; DOTA on its own K7; source: synthetic peptide (Fmoc solid phase synthesis, RP-HPLC purified)) [ligand-5] stands at 2.08

For reference, reported log10 of IC50 for ILRWSRKLPCVSK(DOTA) (source: synthetic peptide (Fmoc solid phase synthesis, RP-HPLC purified)) [ligand-1] stands at 2.48
